As shown below, each of these compounds has a reported pest or weed control at 8966.8 g/ha value.
- Tested on: Yellow Rocket
- MEASUREMENT_NOTES: Postemergence herbicidal activity, % control of plant growth
- Assay type: in vivo
- ASSAY_CONTEXT: post-emergence, 264 h, 8 lb/acre, about 11 days
PROPERTY: pest or weed control at 8966.8 g/ha (%)

>>> print(df.to_string())
                                    compound  measured
 0               CCCCn1c(=O)[nH]c2nccnc2c1=O        70
 1                 CCn1c(=O)[nH]c2cccnc2c1=O       100
 2          O=c1[nH]c2cccnc2c(=O)n1Cc1ccccc1        70
 3                CCCn1c(=O)[nH]c2cccnc2c1=O       100
 4               CCCCn1c(=O)[nH]c2cccnc2c1=O        90
 5              CC(C)n1c(=O)[nH]c2cccnc2c1=O       100
 6           O=c1[nH]c2nccnc2c(=O)n1C1CCCCC1       100
 7              O=c1[nH]c2cccnc2c(=O)n1C1CC1       100
 8  CCC(C)n1c(=O)[nH]c2cccnc2c1=O (stereo not shown)       100
 9               C=CCn1c(=O)[nH]c2cccnc2c1=O       100
10           O=c1[nH]c2cccnc2c(=O)n1C1CCCCC1       100
11         O=c1[nH]c2cccnc2c(=O)n1C1CCCCCCC1       100
12  CCC(C)n1c(=O)[nH]c2nccnc2c1=O (stereo not shown)       100
13  O=c1[nH]c(=O)c2ncccc2[nH]1 [pyrido[3,2-d]pyrimidine-2,4(1H,3H)-dione, reference compound]         0
14  CCCCC(CC)Cn1c(=O)[nH]c2cccnc2c1=O (stereo not shown)        90
15         O=c1[nH]c2nccnc2c(=O)n1C1CCCCCCC1       100
